Source of measurements: patent US12544374B2

molecular target: wild type PRC2 (wtPRC2) complex (Homo sapiens (Human)); assay: EZH2 LC-MS assay (LC-Qualified); type: biochemical; conditions: (a) LC-Qualified assay
Sequence (Q15910 whole entry): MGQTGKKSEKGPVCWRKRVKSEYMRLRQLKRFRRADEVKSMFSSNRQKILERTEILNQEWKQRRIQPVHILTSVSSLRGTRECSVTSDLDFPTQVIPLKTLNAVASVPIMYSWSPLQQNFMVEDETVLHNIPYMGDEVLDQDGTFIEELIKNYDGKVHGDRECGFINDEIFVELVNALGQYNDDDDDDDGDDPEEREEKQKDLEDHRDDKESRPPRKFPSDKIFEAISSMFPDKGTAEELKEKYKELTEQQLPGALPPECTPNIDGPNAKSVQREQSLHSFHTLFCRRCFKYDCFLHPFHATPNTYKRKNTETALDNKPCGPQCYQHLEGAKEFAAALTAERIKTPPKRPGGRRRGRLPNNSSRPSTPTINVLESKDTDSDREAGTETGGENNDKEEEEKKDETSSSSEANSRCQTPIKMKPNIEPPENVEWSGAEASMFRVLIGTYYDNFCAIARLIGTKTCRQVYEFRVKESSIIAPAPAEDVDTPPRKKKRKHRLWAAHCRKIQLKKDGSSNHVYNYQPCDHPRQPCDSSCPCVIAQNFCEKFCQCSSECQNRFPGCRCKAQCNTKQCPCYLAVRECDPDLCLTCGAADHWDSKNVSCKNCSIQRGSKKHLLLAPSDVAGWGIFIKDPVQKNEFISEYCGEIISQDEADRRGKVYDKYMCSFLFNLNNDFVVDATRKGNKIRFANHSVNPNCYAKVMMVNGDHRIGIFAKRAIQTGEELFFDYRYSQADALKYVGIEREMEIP
Sequence (Q15022 whole entry partner): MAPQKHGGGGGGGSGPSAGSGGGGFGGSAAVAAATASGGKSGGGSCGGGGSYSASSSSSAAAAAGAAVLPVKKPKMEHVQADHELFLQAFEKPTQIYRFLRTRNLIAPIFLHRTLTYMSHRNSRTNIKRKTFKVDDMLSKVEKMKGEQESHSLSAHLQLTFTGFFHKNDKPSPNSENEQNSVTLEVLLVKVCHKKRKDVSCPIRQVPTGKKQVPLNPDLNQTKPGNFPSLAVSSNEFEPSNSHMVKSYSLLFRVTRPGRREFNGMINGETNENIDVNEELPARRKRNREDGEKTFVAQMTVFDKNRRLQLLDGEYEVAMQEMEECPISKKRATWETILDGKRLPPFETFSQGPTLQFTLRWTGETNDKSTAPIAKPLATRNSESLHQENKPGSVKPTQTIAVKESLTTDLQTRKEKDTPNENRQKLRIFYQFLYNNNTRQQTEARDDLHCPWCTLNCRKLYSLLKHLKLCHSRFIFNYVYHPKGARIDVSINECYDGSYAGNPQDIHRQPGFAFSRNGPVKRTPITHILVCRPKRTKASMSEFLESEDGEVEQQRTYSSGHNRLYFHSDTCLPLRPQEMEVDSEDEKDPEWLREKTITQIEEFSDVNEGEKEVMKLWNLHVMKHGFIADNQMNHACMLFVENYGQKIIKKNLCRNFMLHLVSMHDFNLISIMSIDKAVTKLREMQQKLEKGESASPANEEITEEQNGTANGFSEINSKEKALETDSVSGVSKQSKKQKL
Sequence (O75530 whole entry partner): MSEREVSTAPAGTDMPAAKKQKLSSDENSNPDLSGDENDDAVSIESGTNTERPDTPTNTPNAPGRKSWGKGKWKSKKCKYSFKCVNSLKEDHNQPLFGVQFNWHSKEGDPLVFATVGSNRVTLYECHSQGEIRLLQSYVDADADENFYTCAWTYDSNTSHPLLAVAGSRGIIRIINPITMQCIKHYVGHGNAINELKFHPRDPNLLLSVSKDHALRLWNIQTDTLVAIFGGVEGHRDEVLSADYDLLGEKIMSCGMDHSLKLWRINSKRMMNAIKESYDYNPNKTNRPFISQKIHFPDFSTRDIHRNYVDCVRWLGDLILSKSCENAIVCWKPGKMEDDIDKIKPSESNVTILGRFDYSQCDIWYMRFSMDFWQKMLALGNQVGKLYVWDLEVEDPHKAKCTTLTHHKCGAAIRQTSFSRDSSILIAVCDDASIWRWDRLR
Sequence (Q09028 whole entry partner): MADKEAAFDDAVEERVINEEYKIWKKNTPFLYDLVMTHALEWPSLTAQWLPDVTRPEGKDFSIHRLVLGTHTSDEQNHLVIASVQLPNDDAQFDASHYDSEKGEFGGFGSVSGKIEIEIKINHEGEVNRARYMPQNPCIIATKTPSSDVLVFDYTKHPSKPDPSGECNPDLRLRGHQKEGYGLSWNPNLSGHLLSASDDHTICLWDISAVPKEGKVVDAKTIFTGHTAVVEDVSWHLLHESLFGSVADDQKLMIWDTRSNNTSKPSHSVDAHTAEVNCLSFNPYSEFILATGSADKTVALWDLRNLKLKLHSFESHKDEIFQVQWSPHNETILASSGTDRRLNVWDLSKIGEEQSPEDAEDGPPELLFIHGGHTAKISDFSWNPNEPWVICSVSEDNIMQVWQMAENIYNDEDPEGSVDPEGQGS
Sequence (Q6ZN18 whole entry partner): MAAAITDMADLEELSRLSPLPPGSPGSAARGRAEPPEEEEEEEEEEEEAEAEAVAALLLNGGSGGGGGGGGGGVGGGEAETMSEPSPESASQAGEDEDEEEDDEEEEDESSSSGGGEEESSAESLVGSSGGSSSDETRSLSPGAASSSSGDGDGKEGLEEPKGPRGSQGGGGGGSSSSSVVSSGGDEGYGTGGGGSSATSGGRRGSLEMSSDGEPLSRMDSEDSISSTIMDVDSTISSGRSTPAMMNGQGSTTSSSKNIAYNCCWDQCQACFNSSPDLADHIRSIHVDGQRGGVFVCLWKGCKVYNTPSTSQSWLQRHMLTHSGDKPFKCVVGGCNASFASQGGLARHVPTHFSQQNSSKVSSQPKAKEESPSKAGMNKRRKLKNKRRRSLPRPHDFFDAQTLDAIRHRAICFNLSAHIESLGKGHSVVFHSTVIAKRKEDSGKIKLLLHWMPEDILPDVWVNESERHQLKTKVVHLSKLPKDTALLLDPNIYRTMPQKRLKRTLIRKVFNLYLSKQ
experimental.readout: IC50

Query: Annotate the compound COc1nccc2ccc(N[C@H]3CC[C@H](CNc4ncc(C(=O)N5CCN(C)CC5)cn4)CC3)nc12 [Compound C11] with its measured IC50.
Result: 0.12 µM

Query: Annotate the compound CNc1nccc2ccc(N[C@H]3CC[C@H](CNc4ncc(N)cn4)CC3)nc12 [Compound C62] with its measured IC50.
Result: 0.149 µM

Query: Annotate the compound O=C(c1cnc(NC[C@H]2CC[C@H](Nc3ccc4ccnc(Cl)c4n3)CC2)nc1)N1CCNCC1 [Compound C24] with its measured IC50.
Result: 0.112 µM

Query: Annotate the compound O=C(NC1COC1)c1cnc(NC[C@H]2CC[C@H](Nc3ccc4ccnc(Cl)c4n3)CC2)nc1 [Compound C25] with its measured IC50.
Result: 0.023 µM

Query: Annotate the compound O=C(CCC(=O)N1CCOCC1)Nc1cnc(NC[C@H]2CC[C@H](Nc3ccc4ccnc(Cl)c4n3)CC2)nc1 [Compound C20] with its measured IC50.
Result: 0.068 µM

Query: Annotate the compound OCCc1cnc(NC[C@H]2CC[C@H](Nc3ccc4ccnc(Cl)c4n3)CC2)nc1 [Compound C46] with its measured IC50.
Result: 0.012 µM

Query: Annotate the compound COC(=O)Nc1cnc(NC[C@H]2CC[C@H](Nc3ccc4ccnc(Cl)c4n3)CC2)nc1 [Compound C15] with its measured IC50.
Result: 0.017 µM

Query: Annotate the compound COc1nccc2ccc(N[C@H]3CC[C@H](CNc4ncc(NC(=O)C5CN(C)C5)cn4)CC3)nc12 [Compound C3] with its measured IC50.
Result: 0.054 µM

Query: Annotate the compound Clc1nccc2ccc(N[C@H]3CC[C@H](CNc4ncc(-c5nnc[nH]5)cn4)CC3)nc12 [Compound C67] with its measured IC50.
Result: 0.029 µM

Query: Annotate the compound CN(C(=O)Cc1cnc(NC[C@H]2CC[C@H](Nc3ccc4ccnc(Cl)c4n3)CC2)nc1)C1COC1 [Compound C37] with its measured IC50.
Result: 0.015 µM

Query: Annotate the compound O=C(NC1COC1)C(F)(F)c1cnc(NC[C@H]2CC[C@H](Nc3ccc4ccnc(Cl)c4n3)CC2)nc1 [Compound C77] with its measured IC50.
Result: 0.012 µM

Query: Annotate the compound O=C(Cc1ccc(NC[C@H]2CC[C@H](Nc3ccc4ccnc(Cl)c4n3)CC2)nc1)NC1COC1 [Compound C42] with its measured IC50.
Result: 0.018 µM

Query: Annotate the compound COC1CC(NCc2cnc(NC[C@H]3CC[C@H](Nc4ccc5ccnc(Cl)c5n4)CC3)nc2)C1 (stereo partly drawn) [Compound C32] with its measured IC50.
Result: 0.079 µM

Query: Annotate the compound OC1CC(NCc2cnc(NC[C@H]3CC[C@H](Nc4ccc5ccnc(Cl)c5n4)CC3)nc2)C1 (stereo partly drawn) [Compound C33] with its measured IC50.
Result: 0.042 µM

Query: Annotate the compound O=C(NC1COC1)C(CO)c1cnc(NC[C@H]2CC[C@H](Nc3ccc4ccnc(Cl)c4n3)CC2)nc1 (stereo partly drawn) [Compound C72] with its measured IC50.
Result: 0.049 µM

Query: Annotate the compound O=C(Cc1cnc(NC[C@H]2CC[C@H](Nc3ccc4ccnc(Cl)c4n3)CC2)nc1)N1CCN(CCO)CC1 [Compound C40] with its measured IC50.
Result: 0.046 µM

Query: Annotate the compound CNc1nccc2ccc(N[C@H]3CC[C@H](CNc4ncc(NC(C)=O)cn4)CC3)nc12 [Compound C63] with its measured IC50.
Result: 0.096 µM

Query: Annotate the compound CNc1nccc2ccc(N[C@H]3CC[C@H](CNc4ncc(C(N)=O)cn4)CC3)nc12 [Compound C61] with its measured IC50.
Result: 0.049 µM

Query: Annotate the compound CN(C)C1CCN(C(=O)Cc2cnc(NC[C@H]3CC[C@H](Nc4ccc5ccnc(Cl)c5n4)CC3)nc2)C1 (stereo partly drawn) [Compound C39] with its measured IC50.
Result: 0.081 µM

Query: Annotate the compound COC(=O)N(C)c1cnc(NC[C@H]2CC[C@H](Nc3ccc4ccnc(Cl)c4n3)CC2)nc1 [Compound C65] with its measured IC50.
Result: 0.059 µM

Query: Annotate the compound OCC1COC(c2cnc(NC[C@H]3CC[C@H](Nc4ccc5ccnc(Cl)c5n4)CC3)nc2)OC1 (mixture of isomers) [Compound C34] with its measured IC50.
Result: 0.028 µM

Query: Annotate the compound Clc1nccc2ccc(N[C@H]3CC[C@H](CNc4ncc(CNC5COC5)cn4)CC3)nc12 [Compound C27] with its measured IC50.
Result: 0.027 µM

Query: Annotate the compound O=C(Nc1cnc(NC[C@H]2CC[C@H](Nc3ccc4ccnc(Cl)c4n3)CC2)nc1)OCC1COC1 [Compound C18] with its measured IC50.
Result: 0.028 µM

Query: Annotate the compound Clc1nccc2ccc(N[C@H]3CC[C@H](CNc4ncc(CCNC5COC5)cn4)CC3)nc12 [Compound C48] with its measured IC50.
Result: 0.039 µM

Query: Annotate the compound CC1(NCc2cnc(NC[C@H]3CC[C@H](Nc4ccc5ccnc(Cl)c5n4)CC3)nc2)COC1 [Compound C28] with its measured IC50.
Result: 0.031 µM

Query: Annotate the compound COc1nccc2ccc(N[C@H]3CC[C@H](CNc4ncc(N)cn4)CC3)nc12 [Compound C1] with its measured IC50.
Result: 0.121 µM

Query: Annotate the compound COc1nccc2ccc(N[C@H]3CC[C@H](CNc4ncc(NC(=O)C5CNC5)cn4)CC3)nc12 [Compound C2] with its measured IC50.
Result: 0.087 µM

Query: Annotate the compound COc1nccc2ccc(N[C@H]3CC[C@H](CNc4ncc(-c5ncn[nH]5)cn4)CC3)nc12 [Compound C12] with its measured IC50.
Result: 0.075 µM

Query: Annotate the compound COc1nccc2ccc(N[C@H]3CC[C@H](CNc4ncc(C#N)cn4)CC3)nc12 [Compound C4] with its measured IC50.
Result: 0.046 µM

Query: Annotate the compound COc1nccc2ccc(N[C@H]3CC[C@H](CNc4ncc(CC(=O)NC5COC5)cn4)CC3)nc12 [Compound C13] with its measured IC50.
Result: 0.042 µM
